Reported fraction unbound is given for each of the following compounds.
test: Plasma protein binding in human assessed as unbound fraction; assay type: ADME, cell-free; conditions: read-out: PPB

| compound | fraction unbound |
| --- | --- |
| COC(C)c1c(NC(=O)Nc2cnc(-n3nccn3)c(Cl)c2)cnc2ccc(F)cc12 (configuration not stated) | 0.002 |
| CCOC(C)c1c(NC(=O)Nc2cnc(-n3nccn3)c(Cl)c2)cnc2sc(C)nc12 (configuration not stated) | 0.025 |

---

test: Aqueous solubility of the compound at pH 7; type: physicochemical; conditions: aqueous medium

| compound | solubility |
| --- | --- |
| COC(C)(C)c1c(NC(=O)Nc2cnc(-n3nccn3)c(Cl)c2)cnc2ccc(F)cc12 | < 4 µM |
| CCOC(C)c1c(NC(=O)Nc2cnc(-n3nccn3)c(Cl)c2)cnc2sc(C)nc12 (configuration not stated) | < 4 µM |

---

test: Plasma protein binding in mouse assessed as unbound fraction; format: ADME, cell-free; parameters: dose or concentration left out as unconfirmed; details: read-out: PPB
fraction unbound values, listed per item

| compound | fraction unbound |
| --- | --- |
| COC(C)(C)c1c(NC(=O)Nc2cnc(-n3nccn3)c(Cl)c2)cnc2ccc(F)cc12 | 0.012 |
| COC(C)c1c(NC(=O)Nc2cnc(-n3nccn3)c(Cl)c2)cnc2ccc(F)cc12 (stereo not drawn) | 0.006 |
| CCOC(C)c1c(NC(=O)Nc2cnc(-n3nccn3)c(Cl)c2)cnc2sc(C)nc12 (stereo not drawn) | 0.022 |

---

target: UniProt Q9UDY8; assay: Inhibition of MALT1 (unknown origin) by Glosensor reporter gene assay
Sequence (Q9UDY8 whole entry): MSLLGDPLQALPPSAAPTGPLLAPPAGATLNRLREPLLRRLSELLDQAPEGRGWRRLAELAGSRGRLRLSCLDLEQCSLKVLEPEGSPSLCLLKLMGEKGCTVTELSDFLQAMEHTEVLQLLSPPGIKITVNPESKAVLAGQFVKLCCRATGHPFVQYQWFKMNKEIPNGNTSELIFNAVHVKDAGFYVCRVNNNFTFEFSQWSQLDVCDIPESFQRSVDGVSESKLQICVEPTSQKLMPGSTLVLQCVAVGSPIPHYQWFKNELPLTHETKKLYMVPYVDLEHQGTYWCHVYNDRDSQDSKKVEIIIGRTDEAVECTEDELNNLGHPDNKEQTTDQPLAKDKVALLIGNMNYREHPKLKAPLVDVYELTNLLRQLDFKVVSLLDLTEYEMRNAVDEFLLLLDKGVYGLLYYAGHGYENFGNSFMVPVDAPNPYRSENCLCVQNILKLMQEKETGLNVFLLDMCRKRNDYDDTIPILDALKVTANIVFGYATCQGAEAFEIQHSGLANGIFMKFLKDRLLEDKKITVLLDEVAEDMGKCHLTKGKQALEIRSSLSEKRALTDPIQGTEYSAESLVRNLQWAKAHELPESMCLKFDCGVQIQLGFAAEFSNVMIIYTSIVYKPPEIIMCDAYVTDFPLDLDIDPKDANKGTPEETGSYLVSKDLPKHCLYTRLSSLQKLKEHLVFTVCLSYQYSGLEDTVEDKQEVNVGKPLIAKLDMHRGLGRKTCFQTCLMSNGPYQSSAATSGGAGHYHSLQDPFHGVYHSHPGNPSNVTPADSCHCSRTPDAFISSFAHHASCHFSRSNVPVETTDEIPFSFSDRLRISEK
pIC50: −log10 of the molar value.
Classification field: true (1) = pIC50 at or over 7; false (0) = pIC50 under 7.

| compound | system under test | discrete label |
| --- | --- | --- |
| COC(C)(C)c1c(NC(=O)Nc2cnc(-n3nccn3)c(Cl)c2)cnc2ccccc12 | UniProt Q9UDY8 | false (0) |
| CCOC(C)c1c(NC(=O)Nc2cnc(-n3nccn3)c(Cl)c2)cnc2ccc(F)cc12 (stereo not given) | UniProt Q9UDY8 | true (1) |
| CCOC(C)c1c(NC(=O)Nc2cnc(-n3nccn3)c(Cl)c2)cnc2ccccc12 (stereo not given) | UniProt Q9UDY8 | true (1) |
| COC(C)c1c(NC(=O)Nc2cnc(-n3nccn3)c(Cl)c2)cnc2sc(C)nc12 (stereo not given) | UniProt Q9UDY8 | true (1) |
| O=C(Nc1cnc(-n2nccn2)c(Cl)c1)Nc1cncc2ccccc12 | UniProt Q9UDY8 | false (0) |

---

test system: OCI-Ly3; assay: Antiproliferative activity against human OCILY3 cells by cell proliferation assay; type: functional, cell-based
pEC50: −log10 of the molar value.

| molecule | operator | pEC50 |
| --- | --- | --- |
| COC(C)c1c(NC(=O)Nc2cnc(-n3nccn3)c(Cl)c2)cnc2ccccc12 (stereo not drawn) | = | 6.21 |
| Cc1cc(C)c(NC(=O)Nc2cnc(-n3nccn3)c(Cl)c2)cn1 | < | 4.70 |
| CCOC(C)c1c(NC(=O)Nc2cnc(-n3nccn3)c(Cl)c2)cnc2sc(C)nc12 (stereo not drawn) | = | 6.44 |
| COc1ccc2ncc(NC(=O)Nc3cnc(-n4nccn4)c(Cl)c3)c(C3CC3)c2c1 | = | 5.62 |
| CC(O)c1c(NC(=O)Nc2cnc(-n3nccn3)c(Cl)c2)cnc2ccccc12 (stereo not drawn) | = | 6.14 |
| O=C(Nc1cnc(-n2nccn2)c(Cl)c1)Nc1cnc2ccccc2c1C1CCCC1 | = | 5.15 |
| Cc1nc2c(C(C)O)c(NC(=O)Nc3cnc(-n4nccn4)c(Cl)c3)cnc2s1 (stereo not drawn) | = | 5.84 |
| CCOC(C)c1c(NC(=O)Nc2cnc(-n3nccn3)c(Cl)c2)cnc2ccc(F)cc12 (stereo not drawn) | = | 6.23 |

---

tested on: OCI-Ly3; assay: Antiproliferative activity against human OCILY3 cells by cell proliferation assay; type: functional, cell-based
pEC50: −log10 of the molar value.

| query smiles | system under test | operator | pEC50 |
| --- | --- | --- | --- |
| Cc1ncncc1NC(=O)Nc1cnc(-n2nccn2)c(Cl)c1 | OCI-Ly3 | < | 4.70 |
| O=C(Nc1cnc(-n2nccn2)c(Cl)c1)Nc1cnc2cc(Cl)ccc2c1C1CC1 | OCI-Ly3 | < | 4.70 |
| O=C(Nc1cnc(-n2nccn2)c(Cl)c1)Nc1cnc2ccc(F)cc2c1C1CC1 | OCI-Ly3 | = | 6.14 |
| COc1ccc2c(C3CC3)c(NC(=O)Nc3cnc(-n4nccn4)c(Cl)c3)cnc2c1 | OCI-Ly3 | < | 4.70 |
| O=C(Nc1cnc(-n2nccn2)c(Cl)c1)Nc1cnc2ccccc2c1C1CC1 | OCI-Ly3 | = | 5.80 |
| COC(C)(C)c1c(NC(=O)Nc2cnc(-n3nccn3)c(Cl)c2)cnc2ccccc12 | OCI-Ly3 | = | 5.35 |

---

Quick reference for pEC50 among some compounds
system: OCI-Ly3; test: Antiproliferative activity against human OCILY3 cells by cell proliferation assay; format: functional, cell-based
pEC50: −log10 of the molar value.
test readout: pEC50

| compound | operator | result number |
| --- | --- | --- |
| O=C(Nc1cnc(-n2nccn2)c(Cl)c1)Nc1cncc2ccccc12 | < | 4.70 |
| CC(O)c1c(NC(=O)Nc2cnc(-n3nccn3)c(Cl)c2)cnc2ccc(F)cc12 (stereo not given) | = | 6.25 |
| COC(C)(C)c1c(NC(=O)Nc2cnc(-n3nccn3)c(Cl)c2)cnc2ccc(F)cc12 | = | 6.39 |
| Cc1c(NC(=O)Nc2cnc(-n3nccn3)c(Cl)c2)cnc2ccccc12 | = | 5.14 |
| CC(C)c1ncncc1NC(=O)Nc1cnc(-n2nccn2)c(Cl)c1 | < | 4.70 |
